test system: CD8+ T cells of healthy HLA-A*02 donors; experiment: In vitro T-cell priming immunogenicity assay with aAPCs loaded with peptide/MHC complexes and anti-CD28 antibody, multimer readout; type: cell-based, human; settings: HLA-A*02 restricted peptides, percentage of positive wells among evaluable, Table 10B
measurementName: Wells positive [%]

INSERT INTO assay_data (substance, result) VALUES
  ('16 (AVMTDLPVI; listed as Homo sapiens) [compound 16]', '+ (<20% = +)'),
  ('6 (LLLPLLPPLSPS; listed as Homo sapiens) [compound 6]', '+ (<20% = +)');

* * *

target: HLA-A*02:01 (Homo sapiens, UniProt P04439, D140Y/D185E/D98H/E176V/E277Q/G131W/G231S/I119V/I121R/I166T/I218V/L300P/L318F/N151K/N90K/P208A/P217A/Q86G/Q94H/R138H/R169H/T345S); assay: MHC binding assay (UV-ligand exchange, β2m ELISA); conditions: peptide exchange yield
measurementName: Peptide exchange (MHC class I binding score)

Field: example entries. Status: answers known.
INSERT INTO measurements (substance, result) VALUES
  ('15 (SVIDSLPEI; listed as Homo sapiens) [compound 15]', '++++ (>75% = ++++)'),
  ('23 (SLLSELLGV; listed as Homo sapiens) [compound 23]', '++++ (>75% = ++++)'),
  ('6 (LLLPLLPPLSPS; listed as Homo sapiens) [compound 6]', '++++ (>75% = ++++)'),
  ('4 (FLLEAQNYL; listed as Homo sapiens) [compound 4]', '++++ (>75% = ++++)'),
  ('30 (FASGLIHRV; listed as Homo sapiens) [compound 30]', '+++ (>50 = +++)'),
  ('16 (AVMTDLPVI; listed as Homo sapiens) [compound 16]', '++++ (>75% = ++++)'),
  ('13 (VLPRAFTYV; listed as Homo sapiens) [compound 13]', '++++ (>75% = ++++)');

Now let's try a different one.
In: Name the recorded Peptide exchange (MHC class I binding score) for 2 (AAYPEIVAV; listed as Homo sapiens) [compound 2] .
Out: +++ (>50 = +++)

* * *

target: HLA-A*02:01 (Homo sapiens, UniProt P04439, D140Y/D185E/D98H/E176V/E277Q/G131W/G231S/I119V/I121R/I166T/I218V/L300P/L318F/N151K/N90K/P208A/P217A/Q86G/Q94H/R138H/R169H/T345S); assay: MHC binding assay (UV-ligand exchange, β2m ELISA); settings: peptide exchange yield
measurementName: Peptide exchange (MHC class I binding score)

Field: example entries. Status: answers known.
INSERT INTO results (substance, result) VALUES
  ('31 (IAIPFLIKL; listed as Homo sapiens) [compound 31]', '++++ (>75% = ++++)'),
  ('18 (SLSPDLSQV; listed as Homo sapiens) [compound 18]', '+++ (>50 = +++)'),
  ('27 (ALAEQVQKA; listed as Homo sapiens) [compound 27]', '+++ (>50 = +++)'),
  ('1 (YAAEIASAL; listed as Homo sapiens) [compound 1]', '+++ (>50 = +++)'),
  ('29 (FASEVSNVL; listed as Homo sapiens) [compound 29]', '++++ (>75% = ++++)');

In: Name the recorded Peptide exchange (MHC class I binding score) for 28 (YASGSSASL; listed as Homo sapiens) [compound 28] .
Out: + (>10% = +)

In: Name the recorded Peptide exchange (MHC class I binding score) for 14 (YGIEFVVGV; listed as Homo sapiens) [compound 14] .
Out: ++++ (>75% = ++++)

In: Name the recorded Peptide exchange (MHC class I binding score) for 7 (LLLSDPDKVTI; listed as Homo sapiens) [compound 7] .
Out: ++++ (>75% = ++++)

In: Name the recorded Peptide exchange (MHC class I binding score) for 8 (LSASLVRIL; listed as Homo sapiens) [compound 8] .
Out: + (>10% = +)
